All values here come from patent US12133855B2.

methodDescription: Thiol-triggered size variation of OCholB LNPs (DTT, cysteine; DLS)
Assay type: physicochemical
testContext: 10 mM DTT, 24 h
quantity: increase in averaged hydrodynamic diameter
Please state the number and follow it with the unit.

These solved cases illustrate the format of a correct answer.
{"molecule": "CC(C)CCCC(C)C1CCC2C3CC=C4CC(OC(=O)NCCSSCCOC(=O)CCN(C)CCN(CCN(C)CCC(=O)OCCSSCCNC(=O)OC5CCC6(C)C(=CCC7C6CCC6(C)C(C(C)CCCC(C)C)CCC76)C5)CCN(C)CCC(=O)OCCSSCCNC(=O)OC5CCC6(C)C(=CCC7C6CCC6(C)C(C(C)CCCC(C)C)CCC76)C5)CCC4(C)C3CCC12C (stereo not drawn) [Lipidoid 304-OCholB]", "value": "3849.6%"}
{"molecule": "CC(C)CCCC(C)C1CCC2C3CC=C4CC(OC(=O)NCCSSCCOC(=O)CCN(CCC(=O)OCCSSCCNC(=O)OC5CCC6(C)C(=CCC7C6CCC6(C)C(C(C)CCCC(C)C)CCC76)C5)CCN(C)C)CCC4(C)C3CCC12C (stereo not drawn) [Lipidoid 78-OCholB]", "value": "4642.8%"}

From here, focus on the item given below.
Any idea what increase in averaged hydrodynamic diameter was measured for CC(C)CCCC(C)C1CCC2C3CC=C4CC(OC(=O)NCCSSCCOC(=O)CCN(CCCN(CCO)CCO)CCC(=O)OCCSSCCNC(=O)OC5CCC6(C)C(=CCC7C6CCC6(C)C(C(C)CCCC(C)C)CCC76)C5)CCC4(C)C3CCC12C (stereo not drawn) [Lipidoid 87-OCholB] ?
210.3%
